System: waterhemp_RES2 (ALS & HPPD resistant common waterhemp, Amaranthus rudis)
Experiment: Test F postemergence plant response
Type: in vivo
Conditions: 62 g ai/ha Postemergence; scale 0 to 100
readout-name: Plant response rating, Waterhemp_RES2
A bare number is all that is needed in reply.

Request: Give measured Plant response rating, Waterhemp_RES2 for FC(F)(F)c1cc(-c2ccccc2Oc2ncc(Cl)cn2)no1 (waterhemp_RES2 (ALS & HPPD resistant common waterhemp, Amaranthus rudis)).
Result: 98

Request: Give measured Plant response rating, Waterhemp_RES2 for Cc1cc(-c2ccccc2Oc2ncc(Cl)cn2)on1 (waterhemp_RES2 (ALS & HPPD resistant common waterhemp, Amaranthus rudis)).
Result: 75

Request: Give measured Plant response rating, Waterhemp_RES2 for CC(F)(F)c1cc(-c2ccccc2Oc2ncc(Br)cn2)no1 (waterhemp_RES2 (ALS & HPPD resistant common waterhemp, Amaranthus rudis)).
Result: 100

Request: Give measured Plant response rating, Waterhemp_RES2 for FC(F)c1cc(-c2ccccc2Oc2ncc(Cl)cn2)on1 (waterhemp_RES2 (ALS & HPPD resistant common waterhemp, Amaranthus rudis)).
Result: 100

Request: Give measured Plant response rating, Waterhemp_RES2 for FC(F)c1cc(-c2ccccc2Oc2ncc(Br)cn2)on1 (waterhemp_RES2 (ALS & HPPD resistant common waterhemp, Amaranthus rudis)).
Result: 98

###

Tested on: galium (catchweed bedstraw, Galium aparine)
Test: Test B postemergence plant response
Assay type: in vivo
Conditions: Postemergence, 31 g ai/ha; 0 to 100 scale (0 no effect, 100 complete control)
For each entry below, report its Plant response rating, Galium value.
A bare number is all that is needed in reply.

Request: Return reported Plant response rating, Galium. Input compound: FC(F)(F)COc1cc(-c2ccccc2Oc2ncc(Cl)cn2)ncn1
Result: 70

Request: Return reported Plant response rating, Galium. Input compound: N#Cc1cc(-c2ccccc2Oc2ncc(Cl)cn2)on1
Result: 30

Request: Return reported Plant response rating, Galium. Input compound: Clc1cnc(Oc2ccccc2-c2cc(Cl)cnn2)nc1
Result: 0

Request: Return reported Plant response rating, Galium. Input compound: FC(F)(Cl)c1cc(-c2ccccc2Oc2ncc(Cl)cn2)no1
Result: 50

Request: Return reported Plant response rating, Galium. Input compound: CC(F)(F)c1cc(-c2ccccc2Oc2ncc(Cl)cn2)no1
Result: 90

Request: Return reported Plant response rating, Galium. Input compound: Brc1cnc(Oc2ccccc2-c2ccns2)nc1
Result: 0

Request: Return reported Plant response rating, Galium. Input compound: Fc1ccc(Oc2ncc(Cl)cn2)c(-c2cc(C(F)(Cl)Cl)on2)c1
Result: 90

Request: Return reported Plant response rating, Galium. Input compound: Fc1cccc(Oc2ncc(Cl)cn2)c1-c1cc(C(F)F)no1
Result: 100

Request: Return reported Plant response rating, Galium. Input compound: C=C(C)c1cc(-c2ccccc2Oc2ncc(Br)cn2)on1
Result: 10

Request: Return reported Plant response rating, Galium. Input compound: Cc1cnc(Oc2ccccc2-c2cc(C(C)(F)F)on2)nc1
Result: 50

Request: Return reported Plant response rating, Galium. Input compound: Clc1cnc(Oc2ccccc2-c2cnccn2)nc1
Result: 20

Request: Return reported Plant response rating, Galium. Input compound: COc1ccnc(-c2ccccc2Oc2ncc(Cl)cn2)c1
Result: 20

Request: Return reported Plant response rating, Galium. Input compound: COc1cnc(Oc2ccccc2-c2cc(C(F)F)no2)nc1
Result: 50

Request: Return reported Plant response rating, Galium. Input compound: Fc1cccc(Oc2ncc(Br)cn2)c1-c1cc(C(F)F)no1
Result: 100

Request: Return reported Plant response rating, Galium. Input compound: Fc1cccc(Oc2ncc(Cl)cn2)c1-c1cnccn1
Result: 20

Request: Return reported Plant response rating, Galium. Input compound: Cn1nc(-c2c(C#N)cccc2Oc2ncc(Cl)cn2)cc1C(F)(F)F
Result: 30

Request: Return reported Plant response rating, Galium. Input compound: Fc1cnc(Oc2ccccc2-c2cnccn2)nc1
Result: 10

Request: Return reported Plant response rating, Galium. Input compound: CCOC(=O)c1cc(-c2ccccc2Oc2ncc(Cl)cn2)on1
Result: 0

###

Tested on: galium (catchweed bedstraw, Galium aparine)
Experiment: Test B postemergence plant response
Type: in vivo
Conditions: 31 g ai/ha, Postemergence; 0 to 100 scale, 0 no effect, 100 complete control
Text: At the same time, plants selected from these crop and weed species and also blackgrass (Alopecurus myosuroides), and galium (catchweed bedstraw, Galium aparine) were planted in pots containing the same blend of loam soil and sand and treated with postemergence applications of test chemicals formulated in the same manner. Plants ranged in height from 2 to 10 cm and were in the one- to two-leaf stage for the postemergence treatment. […]
For each entry below, report its Plant response rating, Galium value.
A bare number is all that is needed in reply.

Request: Give measured Plant response rating, Galium for CCOC(OCC)c1cc(-c2ccccc2Oc2ncc(Cl)cn2)on1 [Compound 108] (galium (catchweed bedstraw, Galium aparine)).
Result: 30

Request: Give measured Plant response rating, Galium for Cn1ncnc1-c1ccccc1Oc1ncc(Cl)cn1 [Compound 117] (galium (catchweed bedstraw, Galium aparine)).
Result: 0

Request: Give measured Plant response rating, Galium for Cn1cnc(-c2ccccc2Oc2ncc(Cl)cn2)n1 [Compound 115] (galium (catchweed bedstraw, Galium aparine)).
Result: 0

Request: Give measured Plant response rating, Galium for Clc1cnc(Oc2ccccc2-c2cc(C(Cl)Cl)on2)nc1 [Compound 97] (galium (catchweed bedstraw, Galium aparine)).
Result: 10

Request: Give measured Plant response rating, Galium for Fc1ccc(Oc2ncc(Cl)cn2)c(-c2cc(C(F)F)on2)c1Br [Compound 114] (galium (catchweed bedstraw, Galium aparine)).
Result: 70

Request: Give measured Plant response rating, Galium for N#Cc1cccc(Oc2ncc(Cl)cn2)c1-c1ccsc1 [Compound 112] (galium (catchweed bedstraw, Galium aparine)).
Result: 30

Request: Give measured Plant response rating, Galium for COc1cccc(Oc2ncc(F)cn2)c1-c1cc(C)no1 [Compound 111] (galium (catchweed bedstraw, Galium aparine)).
Result: 10

Request: Give measured Plant response rating, Galium for Cc1nnc(-c2ccccc2Oc2ncc(Cl)cn2)o1 [Compound 106] (galium (catchweed bedstraw, Galium aparine)).
Result: 0

Request: Give measured Plant response rating, Galium for Fc1cc(F)c(-c2cc(C(F)F)no2)c(Oc2ncc(Cl)cn2)c1 [Compound 107] (galium (catchweed bedstraw, Galium aparine)).
Result: 0

Request: Give measured Plant response rating, Galium for FC(F)c1cc(-c2c(Cl)cccc2Oc2ncc(Br)cn2)on1 [Compound 121] (galium (catchweed bedstraw, Galium aparine)).
Result: 100

###

Test system: blackgrass (Alopecurus myosuroides)
Experiment: Test D pre-/postemergence plant response
Assay type: in vivo
Conditions: Postemergence, 62 g ai/ha; scale 0 to 100, 0 no effect, 100 complete control
The threshold is inclusive: Plant response rating, Blackgrass of exactly 5 counts as t; values below receive f.

Request: Please check the record Clc1cnc(Oc2ccccc2-c2cc(Cl)sn2)nc1 [Compound 192] and state if its Plant response rating, Blackgrass is at or above 5.
Result: f

Request: Please check the record Fc1cccc(Oc2ncc(Cl)cn2)c1-c1cc(C(F)(F)F)no1 [Compound 228] and state if its Plant response rating, Blackgrass is at or above 5.
Result: t

Request: Please check the record CC(F)(F)c1cc(-c2ccccc2Oc2ncc(Br)cn2)no1 [Compound 149] and state if its Plant response rating, Blackgrass is at or above 5.
Result: f

Request: Please check the record CC(F)(F)c1cc(-c2ccccc2Oc2ncc(Cl)cn2)on1 [Compound 178] and state if its Plant response rating, Blackgrass is at or above 5.
Result: t

Request: Please check the record FC(F)c1cc(-c2c(Cl)cccc2Oc2ncc(Cl)cn2)on1 [Compound 120] and state if its Plant response rating, Blackgrass is at or above 5.
Result: t

Request: Please check the record Cc1cc(-c2ccccc2Oc2ncc(Cl)cn2)on1 [Compound 58] and state if its Plant response rating, Blackgrass is at or above 5.
Result: f

Request: Please check the record Cc1cc(-c2ccccc2Oc2ncc(Cl)cn2)no1 [Compound 153] and state if its Plant response rating, Blackgrass is at or above 5.
Result: f

###

System: johnsongrass (Sorghum halepense)
Assay: Test D pre-/postemergence plant response
Format: in vivo
Conditions: Preemergence; 16 g ai/ha; scale 0 to 100 (0 no effect, 100 complete control)
For each entry below, report its Plant response rating, Johnsongrass value.
A bare number is all that is needed in reply.

Request: Return reported Plant response rating, Johnsongrass. Input compound: Fc1ccc(Oc2ncc(Cl)cn2)c(-c2cc(C(F)F)on2)c1F
Result: 10

Request: Return reported Plant response rating, Johnsongrass. Input compound: N#Cc1cccc(Oc2ncc(Cl)cn2)c1-c1cc(C(F)F)on1
Result: 0

Request: Return reported Plant response rating, Johnsongrass. Input compound: Fc1cccc(Oc2ncc(Br)cn2)c1-c1cc(C(F)F)on1
Result: 10

Request: Return reported Plant response rating, Johnsongrass. Input compound: Cc1cc(-c2c(F)cccc2Oc2ncc(Cl)cn2)on1
Result: 10

Request: Return reported Plant response rating, Johnsongrass. Input compound: FC(F)c1cc(-c2c(Cl)cccc2Oc2ncc(Cl)cn2)no1
Result: 0
